# Tested on: Zymoseptoria tritici (SEPTTR-184)
# assayProcedure: Cyp51 dsRNA tile (fragment) foliar application bioassay (Example 6)
# Format: in vivo
# measurementConditions: 3 days curative; rate 12.5 ppm; average of 2 trials
Lab note: compare Disease Control (%) SEPTTR-184 3DC against 50%. Equal or greater, write true. Smaller, write false.

Solved cases (4 shown):
MgCyp51-T3: dsRNA tile of Zymoseptoria tritici Cyp51, 230 bp, location 450-679 (nucleic acid, listed as Zymoseptoria tritici) CGTCAAGTACGGCCTCACAACCTCTGCCCTCCAGTCCTACGTGACCTTGATCGCCGCCGAGACCCGCCAGTTCTTCGACCGCAACAACCCTCATAAGAAGTTCGCATCGACCAGCGGCACGATCGATCTCCCACCAGCCCTCGCCGAACTTACGATCTATACTGCCAGCCGATCATTGCAAGGAAAGGAAGTCCGCGAGGGCTTCGACTCGTCTTTCGCGGACCTCTACC	true
MgCyp51-T10: dsRNA tile of Zymoseptoria tritici Cyp51, 172 bp, location 345-516 (nucleic acid, listed as Zymoseptoria tritici) GGACGTCAACGCGGAGGAGATATACAGCCCGCTGACCACTCCTGTCTTTGGCAAGGATGTGGTTTATGATTGTCCCAATTCGAAGCTCATGGAGCAGAAGAAGTTCGTCAAGTACGGCCTCACAACCTCTGCCCTCCAGTCCTACGTGACCTTGATCGCCGCCGAGACCCGC	false
MgCyp51-T4: dsRNA tile of Zymoseptoria tritici Cyp51, 178 bp, location 647-824 (nucleic acid, listed as Zymoseptoria tritici) AGGGCTTCGACTCGTCTTTCGCGGACCTCTACCACTACCTCGATATGGGATTCACACCGATCAACTTTATGCTTCCGTGGGCGCCCCTTCCCCAGAACCGACGCCGCGATTATGCGCAGAAGAAGATGTCCGAGACATACATGTCGATCATTCAGAAGAGACGAGAGTCCAAAACGGG	true
YFP: non-target dsRNA control (YFP, yellow fluorescent protein coding region) (nucleic acid, double-stranded RNA; synthesized partial coding region) TGTAGAAATCCTTCAGCTCGGGGCCGTACTTGGCGAAGCACTGGGCGCCGTAGGTCAGGGTGGTCACCAGGGTGCTCCAGGGCACGGGCACATCGCCGGTGGTGCAGATGAACTGGGCATCCACCTTGCCCACGCTGGCATCGCCGTAGCCCTTGCCGCGGATGCTGAAGGTGTGGCCATCCACATTGCCCTCCATCTCCACCACGTAGGGGATCTTGCCGTGGAACAGCAGGGCGCCGCTGGAGCCCAT	false

Quick check: does MgCyp51-T13: dsRNA tile of Zymoseptoria tritici Cyp51, 119 bp, location 1517-1635 (nucleic acid, listed as Zymoseptoria tritici, long dsRNA tile, purified, chemistry not given here) ACAATGTGGATGGCAGCGACAACGTGGTGGGTACGGATTACAGCAGTTTGTTCAGCCGGCCGCTGTCGCCGGCAGTAGTAAAGTGGGAGAGGAGGGAGGAGAAGGAGGAGAAGAACTGA have Disease Control (%) SEPTTR-184 3DC greater than or equal to 50%? true
